Please respond with reported Measured concentration, -80°C for 14 days for every item in the list.
# assayDetails: Stability of analytes in rat plasma (QC samples under four storage conditions)
# Format: in vitro ADME
# recordedConditions: spiked concentration 5 ng/mL, n = 6
Give your result in ng/mL as a bare value.

Look at this compound and give its reported Measured concentration, -80°C for 14 days. O=c1cc(-c2ccc(O)cc2)oc2cc(O[C@@H]3O[C@H](CO)[C@@H](O)[C@H](O)[C@H]3O)cc(O)c12 [Apigenin 7-glucoside]
5.1

Look at this compound and give its reported Measured concentration, -80°C for 14 days. O=C(/C=C/c1ccc(O)c(O)c1)O[C@@H]1[C@H](O)C[C@@](O)(C(=O)O)C[C@H]1OC(=O)/C=C/c1ccc(O)c(O)c1
5.6

Look at this compound and give its reported Measured concentration, -80°C for 14 days. O=c1c(O[C@@H]2O[C@H](CO)[C@H](O)[C@H](O)[C@H]2O)c(-c2ccc(O)c(O)c2)oc2cc(O)cc(O)c12 [Hyperoside]
4.8

* * *

# assayDetails: Stability of analytes in rat plasma (QC samples under four storage conditions)
# Format: in vitro ADME
# recordedConditions: spiked concentration 200 ng/mL, n = 6
# Description: To study the stability of all compounds in rat plasma, low, medium, and high concentrations of QC samples were tested under the following test conditions: stored at an autosampler for 12 hours, stored at room temperature for 6 hours, put through three freeze/thaw cycles, and stored at -80°C for 14 days. […] The stability of all 13 analytes during sample collection and processing was evaluated with the various storage conditions being tested on spiked plasma samples at three QC concentrations.
assayEndpoint: Measured concentration, Three freeze-thaw cycles
Give the number first and the unit second.

Look at this compound and give its reported Measured concentration, Three freeze-thaw cycles. COc1ccc(-c2cc(=O)c3c(O)cc(O[C@@H]4O[C@H](CO)[C@@H](O)[C@H](O)[C@H]4O)cc3o2)cc1 [Tilianin]
209.6 ± 0.3 ng/mL

Look at this compound and give its reported Measured concentration, Three freeze-thaw cycles. O=c1cc(-c2ccc(O)c(O)c2)oc2cc(O)cc(O)c12 [Luteolin]
223.7 ± 1.5 ng/mL

Look at this compound and give its reported Measured concentration, Three freeze-thaw cycles. COc1ccc([C@@H]2CC(=O)c3c(O)cc(O[C@@H]4O[C@H](CO[C@@H]5O[C@@H](C)[C@H](O)[C@@H](O)[C@H]5O)[C@@H](O)[C@H](O)[C@H]4O)cc3O2)cc1O [Hesperidin]
218.3 ± 0.7 ng/mL

Look at this compound and give its reported Measured concentration, Three freeze-thaw cycles. O=c1cc(-c2ccc(O)c(O)c2)oc2cc(O[C@@H]3O[C@H](CO)[C@@H](O)[C@H](O)[C@H]3O)cc(O)c12 [Cynaroside]
219.8 ± 1.0 ng/mL

* * *

# assayDetails: Stability of analytes in rat plasma (QC samples under four storage conditions)
# Type: in vitro ADME
# recordedConditions: spiked concentration 50 ng/mL, n = 6
Please respond with reported Measured concentration, Three freeze-thaw cycles for every item in the list.
Give your result in ng/mL as a bare value.

Look at this compound and give its reported Measured concentration, Three freeze-thaw cycles. COc1ccc(-c2cc(=O)c3c(O)cc(O)cc3o2)cc1
50.2

Look at this compound and give its reported Measured concentration, Three freeze-thaw cycles. O=c1cc(-c2ccc(O)cc2)oc2cc(O)cc(O)c12
50.5

Look at this compound and give its reported Measured concentration, Three freeze-thaw cycles. O=c1cc(-c2ccc(O)cc2)oc2cc(O[C@@H]3O[C@H](CO)[C@@H](O)[C@H](O)[C@H]3O)cc(O)c12 [Apigenin 7-glucoside]
53.7

Look at this compound and give its reported Measured concentration, Three freeze-thaw cycles. O=c1c(O[C@@H]2O[C@H](CO)[C@H](O)[C@H](O)[C@H]2O)c(-c2ccc(O)c(O)c2)oc2cc(O)cc(O)c12 [Hyperoside]
54.5

Look at this compound and give its reported Measured concentration, Three freeze-thaw cycles. O=C(/C=C/c1ccc(O)c(O)c1)O[C@@H]1C[C@](O)(C(=O)O)C[C@@H](O)[C@H]1O
54.7

Look at this compound and give its reported Measured concentration, Three freeze-thaw cycles. O=C(/C=C/c1ccc(O)c(O)c1)O[C@@H]1[C@H](O)C[C@@](O)(C(=O)O)C[C@H]1OC(=O)/C=C/c1ccc(O)c(O)c1
55.3

Look at this compound and give its reported Measured concentration, Three freeze-thaw cycles. O=C(/C=C/c1ccc(O)c(O)c1)O[C@H]1[C@H](O)C[C@](O)(C(=O)O)C[C@H]1O
54.1

The reported numbers originate from paper PMC7456477.
